In what follows, each item is paired with its IC50 for Estrogen receptor beta (Homo sapiens, UniProt Q92731).
Active and inactive are the calls of the source.

Problem: Give the measured IC50 of Cc1ccc(S(=O)(=O)Cc2ccc(C(=O)O)o2)cc1 .
Result: 5.22 µM (active)

Problem: Consider next the compound COc1ccc(C(=O)c2c(C(F)(F)F)oc3c2C(=O)c2ccccc2C3=O)cc1 in the same way.
Result: > 50 µM (not active)

Problem: Consider next the compound CC(=N)/C(C#N)=C(/O)CSc1nnc(-c2ccc(OC(F)F)cc2)o1 in the same way.
Result: 9.26 µM (active)

Problem: Consider next the compound CCN(CC)S(=O)(=O)c1ccc(C(=O)NCc2ccc(C)cc2)cc1 in the same way.
Result: > 50 µM (not active)

Problem: Consider next the compound CC(=O)Nc1cc2c(cc1C(=O)c1ccccc1)OCCO2 in the same way.
Result: > 50 µM (not active)

The origin of these recorded values is ChEMBL document CHEMBL1201862.
